// data source = patent US7763752B2

For each entry below, report its melting point value.

# example entries with known answers
compound="Cl.NC(CO)CCCc1ccc(S(=O)(=O)c2cccc(OCc3ccccc3)c2)cc1Cl (stereo not shown)" observed_measurement="154 to 156 °C"
compound="Cl.NC(CO)CCCc1ccc(Sc2cccc(C(F)(F)F)c2)cc1Cl (stereo not shown)" observed_measurement="166 to 168 °C"
compound="CCCC(N)(CO)CCCc1ccc(Sc2cccc(OCc3ccccc3)c2)cc1Cl.Cl (single isomer, unassigned; (+)) [Example 209]" observed_measurement="55 to 57 °C"

Would you kindly look at the next entry?
// recorded melting point for CC(=O)NC(CO)CCc1ccc(Sc2cccc(OCc3ccccc3)c2)cc1Cl (stereo not shown) [Example 201] : 78 to 81 °C
